Hey, just so you know, these numbers are from ChEMBL document CHEMBL5584296.

test: Ratio of drug concentration in male ICR mouse brain to plasma at 10 mg/kg, ip measured after 0.5 hrs by LC-MS/MS analysis; format: ADME, organism-based; conditions: read-out: BPR
Value Kind: Kp at 0.5 h

{"columns": ["Chem Smiles", "Value Kind", "Observed"],
 "data": [
  ["COc1cccc(-c2cc(N3CCCc4ccccc4C3)nc(N)n2)c1", "Kp at 0.5 h", 3.6]
]}

----------
target: Sodium channel protein type 2 subunit alpha (Homo sapiens); test: Inhibition of human Nav1.2 expressed in HEK293 cells assessed as test to control ratio at 1 uM measured after 5 mins by whole cell voltage clamp electrophysiological analysis; type: cell-based

{"columns": ["Chem Smiles", "T/C"],
 "data": [
  ["COc1cccc(-c2cc(NCCc3ccc4c(c3)OCO4)nc(N)n2)c1", 0.34],
  ["COc1cccc(-c2cc(N3CC4CC(C3)c3ccccc34)nc(NS(=O)(=O)c3ccc(C)cc3C)n2)c1", 0.84],
  ["CCCc1ccc(S(=O)(=O)Nc2nc(-c3cccc(OC)c3)cc(N3CCCc4ccccc4C3)n2)cc1", 0.12]
]}

----------
assay: Cmax in male ICR mouse at 20 mg/kg, po measured after 24 hrs by LC-MS/MS analysis; assay type: ADME, organism-based; settings: in vivo
Value Kind: Cmax

{"columns": ["Chem Smiles", "Value Kind", "Observed"],
 "data": [
  ["COc1cccc(-c2cc(N3CCCc4ccccc4C3)nc(N)n2)c1", "Cmax", "0.0634 µg/mL"]
]}

----------
assay: AUC (0 to infinity) in male ICR mouse at 10 mg/kg, ip measured after 24 hrs by LC-MS/MS analysis; assay type: ADME, organism-based; settings: in vivo

{"columns": ["Chem Smiles", "AUC(0-inf) [ng·h/mL]"],
 "data": [
  ["COc1cccc(-c2cc(N3CCCc4ccccc4C3)nc(N)n2)c1", 793]
]}

----------
target: Sodium channel protein type 2 subunit alpha (Homo sapiens, UniProt Q99250); assay: Inhibition of human Nav1.2 expressed in HEK293 cells assessed as test to control ratio at 10 uM measured after 5 mins by whole cell voltage clamp electrophysiological analysis; assay type: cell-based
Sequence (Q99250 whole entry, looked up): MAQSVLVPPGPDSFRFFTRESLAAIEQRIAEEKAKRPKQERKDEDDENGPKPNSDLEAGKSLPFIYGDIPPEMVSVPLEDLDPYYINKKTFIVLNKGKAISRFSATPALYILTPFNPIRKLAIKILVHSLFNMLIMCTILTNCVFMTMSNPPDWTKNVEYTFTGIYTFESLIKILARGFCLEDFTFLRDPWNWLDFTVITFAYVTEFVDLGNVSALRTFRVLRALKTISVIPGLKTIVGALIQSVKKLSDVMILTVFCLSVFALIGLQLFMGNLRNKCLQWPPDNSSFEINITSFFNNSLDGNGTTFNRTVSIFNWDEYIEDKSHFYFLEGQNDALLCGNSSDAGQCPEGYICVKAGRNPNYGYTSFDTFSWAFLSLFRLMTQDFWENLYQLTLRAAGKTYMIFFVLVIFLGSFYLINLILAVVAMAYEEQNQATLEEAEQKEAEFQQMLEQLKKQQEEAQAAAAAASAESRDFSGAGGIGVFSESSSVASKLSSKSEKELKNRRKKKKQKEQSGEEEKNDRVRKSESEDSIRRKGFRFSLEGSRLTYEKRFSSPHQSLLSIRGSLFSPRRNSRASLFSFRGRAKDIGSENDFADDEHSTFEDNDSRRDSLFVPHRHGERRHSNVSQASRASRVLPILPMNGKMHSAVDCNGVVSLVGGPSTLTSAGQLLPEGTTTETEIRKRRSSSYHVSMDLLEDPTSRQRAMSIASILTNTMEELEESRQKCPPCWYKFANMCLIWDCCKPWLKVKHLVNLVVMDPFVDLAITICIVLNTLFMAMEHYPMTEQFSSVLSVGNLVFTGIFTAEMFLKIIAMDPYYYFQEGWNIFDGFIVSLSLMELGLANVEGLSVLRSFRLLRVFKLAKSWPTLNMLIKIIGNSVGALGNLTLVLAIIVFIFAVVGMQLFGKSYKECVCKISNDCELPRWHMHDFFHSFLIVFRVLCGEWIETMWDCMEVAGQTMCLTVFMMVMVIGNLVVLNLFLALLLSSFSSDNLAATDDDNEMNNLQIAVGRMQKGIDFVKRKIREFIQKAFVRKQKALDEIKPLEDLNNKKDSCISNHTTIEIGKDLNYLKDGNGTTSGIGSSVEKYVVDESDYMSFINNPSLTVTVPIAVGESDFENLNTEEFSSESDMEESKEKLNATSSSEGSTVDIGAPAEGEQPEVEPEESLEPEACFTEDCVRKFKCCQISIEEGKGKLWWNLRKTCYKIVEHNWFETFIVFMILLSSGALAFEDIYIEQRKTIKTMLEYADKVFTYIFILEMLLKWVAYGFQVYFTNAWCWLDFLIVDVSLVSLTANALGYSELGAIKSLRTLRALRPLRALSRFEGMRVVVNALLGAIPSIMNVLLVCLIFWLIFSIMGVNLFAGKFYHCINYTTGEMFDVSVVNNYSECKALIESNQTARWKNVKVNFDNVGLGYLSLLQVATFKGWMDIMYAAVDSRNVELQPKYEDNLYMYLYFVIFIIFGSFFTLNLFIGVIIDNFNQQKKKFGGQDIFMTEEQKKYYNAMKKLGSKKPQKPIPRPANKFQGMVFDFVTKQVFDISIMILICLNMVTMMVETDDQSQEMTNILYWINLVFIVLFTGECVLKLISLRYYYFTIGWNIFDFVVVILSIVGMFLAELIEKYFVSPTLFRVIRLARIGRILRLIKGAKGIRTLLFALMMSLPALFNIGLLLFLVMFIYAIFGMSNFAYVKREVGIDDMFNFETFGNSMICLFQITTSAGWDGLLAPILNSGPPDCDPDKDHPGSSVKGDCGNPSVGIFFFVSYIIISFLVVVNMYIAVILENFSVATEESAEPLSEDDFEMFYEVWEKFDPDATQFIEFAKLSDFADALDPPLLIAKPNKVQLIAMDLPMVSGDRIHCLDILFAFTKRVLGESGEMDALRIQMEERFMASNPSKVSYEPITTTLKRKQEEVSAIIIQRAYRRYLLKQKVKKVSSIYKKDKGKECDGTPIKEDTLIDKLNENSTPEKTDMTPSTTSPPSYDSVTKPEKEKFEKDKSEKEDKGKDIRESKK
Catalogue of T/C values
Value Kind: T/C

{"columns": ["Chem Smiles", "Assay System", "Observed"],
 "data": [
  ["CC(C)Oc1ccc(-c2cc(N3CCCc4ccccc4C3)nc(N)n2)cc1", "Sodium channel protein type 2 subunit alpha (Homo sapiens, UniProt Q99250)", 0.37],
  ["COc1cccc(-c2cc(N3CCc4cc(OC)c(OC)cc4C3)nc(N)n2)c1", "Sodium channel protein type 2 subunit alpha (Homo sapiens, UniProt Q99250)", 0.01],
  ["COc1cccc(-c2cc(N3CCCc4ccc(C)cc4C3)ncn2)c1", "Sodium channel protein type 2 subunit alpha (Homo sapiens, UniProt Q99250)", 0.13],
  ["COc1cccc(-c2cc(N3CCCc4cc(F)ccc4C3)nc(N)n2)c1", "Sodium channel protein type 2 subunit alpha (Homo sapiens, UniProt Q99250)", 0.04],
  ["COc1cccc(-c2cc(N3CCc4ccccc4C3)nc(N)n2)c1", "Sodium channel protein type 2 subunit alpha (Homo sapiens, UniProt Q99250)", 0.13],
  ["COc1cccc(-c2cc(N3CCc4nc(Cl)ccc4C3)nc(N)n2)c1", "Sodium channel protein type 2 subunit alpha (Homo sapiens, UniProt Q99250)", 0.18],
  ["COc1cccc(-c2cc(N3Cc4ccccc4C3)nc(N)n2)c1", "Sodium channel protein type 2 subunit alpha (Homo sapiens, UniProt Q99250)", 0.75],
  ["COc1cccc(-c2cc(N3CCCc4ccc(C)cc4C3)nc(OC)n2)c1", "Sodium channel protein type 2 subunit alpha (Homo sapiens, UniProt Q99250)", 0.11],
  ["COc1cccc(-c2cc(N3CCCc4cc(F)c(F)cc4C3)nc(N)n2)c1", "Sodium channel protein type 2 subunit alpha (Homo sapiens, UniProt Q99250)", 0.43],
  ["COc1cccc(-c2cc(N3CCCc4c(cc(OC)cc4OC)C3)nc(N)n2)c1", "Sodium channel protein type 2 subunit alpha (Homo sapiens, UniProt Q99250)", 0.14],
  ["Nc1nc(-c2cccc(OC(F)(F)F)c2)cc(N2CCCc3ccccc3C2)n1", "Sodium channel protein type 2 subunit alpha (Homo sapiens, UniProt Q99250)", 0.07]
]}
